# Target under test: nucleolin expressed on the surface of human cancer cell lines (human, UniProt P19338)
# Protocol notes: cell-based or functional assay
Provide the reported IC50 of cytotoxicity (MTT), MDA-MB-435S breast cancer cells, 4 h of each item.
Number in nM, nothing else.

Entry KFAKFAKKFAKFAKKFAKRARLQRR [KFAKFAKKFAKFAKKFAKR19ARLQRR25] : reported IC50 of cytotoxicity (MTT), MDA-MB-435S breast cancer cells, 4 h = ?
1600

Try KFAKFAKKFAKFAKKFAKVARLQRRFARLFAK [KFAKFAKKFAKFAKKFAKV19ARLQRRFARLFAK32] next.
400

Same lookup for KFAKFAKKFAKFAKKFAKRARLQRRF [KFAKFAKKFAKFAKKFAKR19ARLQRRF26] , please.
870

Another binder to look at: KFAKFAKKFAKFAKKFAKRARLQRRSARLSAK [EP-302]
900

Also check KFAKFAKKFAKFAKKFAKRLQRRSARLSAK [KFAKFAKKFAKFAKKFAKR19LQRRSARLSAK30]
2200

The origin of these recorded values is patent US20110124564A1.
